species on record: Sus scrofa; test: Inhibition of porcine kidney alpha-trehalase assessed as release of p-nitrophenol at 1000 uM using p-nitrophenyl glycoside as substrate by spectrometric assay relative to control
Binning scheme for inhibition: lower segment: < 2%; middle segment: ≥ 2% and < 4%; upper segment: ≥ 4%

Some solved entries appear below for comparison.
| entry_smiles | classification |
| --- | --- |
| OC[C@@]1(c2ccc(O)cc2)NC[C@@H](O)[C@@H]1O | upper segment |
| CCCCCCCCC[C@]1(CO)NC[C@@H](O)[C@@H]1O | upper segment |

Task: GET /class?item= COc1cccc([C@@]2(CO)NC[C@H](O)[C@H]2O)c1
Output: middle segment

Task: GET /class?item= COc1ccc([C@@]2(CO)NC[C@H](O)[C@H]2O)cc1OC
Output: lower segment

---

target: Sucrase-isomaltase, intestinal (Rattus norvegicus); assay: Inhibition of rat intestinal sucrase assessed as release of p-nitrophenol using p-nitrophenyl glycoside as substrate by spectrometric assay
Sequence (P23739 1-1013 limits assumed): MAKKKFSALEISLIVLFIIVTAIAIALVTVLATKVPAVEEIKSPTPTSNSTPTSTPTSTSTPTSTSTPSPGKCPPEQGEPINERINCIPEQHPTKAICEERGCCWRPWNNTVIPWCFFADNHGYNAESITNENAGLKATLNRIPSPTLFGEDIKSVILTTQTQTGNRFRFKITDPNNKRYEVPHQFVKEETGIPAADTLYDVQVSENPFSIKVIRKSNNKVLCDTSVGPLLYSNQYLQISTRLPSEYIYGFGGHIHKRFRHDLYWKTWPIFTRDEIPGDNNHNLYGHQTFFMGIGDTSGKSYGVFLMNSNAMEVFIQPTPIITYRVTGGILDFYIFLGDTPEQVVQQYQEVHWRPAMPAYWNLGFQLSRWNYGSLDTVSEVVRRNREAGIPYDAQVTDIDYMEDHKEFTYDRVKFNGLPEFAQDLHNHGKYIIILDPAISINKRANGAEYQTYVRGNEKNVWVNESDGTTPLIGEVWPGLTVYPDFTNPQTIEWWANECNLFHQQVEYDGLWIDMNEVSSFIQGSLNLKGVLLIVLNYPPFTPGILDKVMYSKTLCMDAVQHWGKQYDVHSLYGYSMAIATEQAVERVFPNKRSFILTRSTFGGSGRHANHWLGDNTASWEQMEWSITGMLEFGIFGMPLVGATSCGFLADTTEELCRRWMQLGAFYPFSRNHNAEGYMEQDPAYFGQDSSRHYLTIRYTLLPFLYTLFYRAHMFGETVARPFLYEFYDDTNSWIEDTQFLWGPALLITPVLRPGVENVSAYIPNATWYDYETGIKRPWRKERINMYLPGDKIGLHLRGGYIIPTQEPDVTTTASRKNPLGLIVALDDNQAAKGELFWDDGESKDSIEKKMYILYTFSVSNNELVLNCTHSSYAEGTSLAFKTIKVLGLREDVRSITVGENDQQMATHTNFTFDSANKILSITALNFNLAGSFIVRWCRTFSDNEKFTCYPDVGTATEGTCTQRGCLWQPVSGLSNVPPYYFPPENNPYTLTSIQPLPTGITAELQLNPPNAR
Sequence (P23739 1014-1841 limits assumed): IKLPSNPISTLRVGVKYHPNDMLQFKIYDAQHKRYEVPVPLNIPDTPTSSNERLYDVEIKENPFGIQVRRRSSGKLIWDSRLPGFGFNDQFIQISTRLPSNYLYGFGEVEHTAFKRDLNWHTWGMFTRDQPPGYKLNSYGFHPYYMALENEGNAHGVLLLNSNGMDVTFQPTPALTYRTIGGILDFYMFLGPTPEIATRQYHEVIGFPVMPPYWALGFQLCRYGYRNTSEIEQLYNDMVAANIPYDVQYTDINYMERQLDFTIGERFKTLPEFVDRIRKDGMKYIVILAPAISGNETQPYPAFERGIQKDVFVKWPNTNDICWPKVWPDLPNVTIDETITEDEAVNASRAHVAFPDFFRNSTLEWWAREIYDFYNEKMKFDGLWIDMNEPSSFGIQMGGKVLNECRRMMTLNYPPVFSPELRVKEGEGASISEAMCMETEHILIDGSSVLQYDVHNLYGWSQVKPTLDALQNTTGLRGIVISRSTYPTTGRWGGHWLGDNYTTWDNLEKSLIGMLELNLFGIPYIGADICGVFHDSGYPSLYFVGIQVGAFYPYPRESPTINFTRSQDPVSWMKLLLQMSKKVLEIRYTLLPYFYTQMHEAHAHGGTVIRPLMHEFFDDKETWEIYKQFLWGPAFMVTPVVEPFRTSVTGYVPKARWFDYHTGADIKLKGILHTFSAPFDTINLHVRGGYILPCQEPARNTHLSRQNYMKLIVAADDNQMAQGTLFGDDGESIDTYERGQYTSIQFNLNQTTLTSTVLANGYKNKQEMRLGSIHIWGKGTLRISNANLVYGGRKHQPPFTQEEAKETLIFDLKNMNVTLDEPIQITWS
Form field: pIC50 (one value per entry).
Please report pIC50 as the negative decimal logarithm of the molar concentration, giving only the number.

Consider the following illustrative entries.
| entry_smiles | pIC50 |
| --- | --- |
| CCCC[C@@]1(CO)NC[C@H](O)[C@H]1O | 6.64 |
| OC[C@@]1(c2cccc(F)c2)NC[C@@H](O)[C@@H]1O | 5.19 |

Just so you know, measured pIC50 for OC[C@]1(c2ccccc2)NC[C@H](O)[C@H]1O came out at 6.32

Just so you know, measured pIC50 for OC[C@@]1(c2c(F)c(F)c(F)c(F)c2F)NC[C@@H](O)[C@@H]1O came out at 5.60

Just so you know, measured pIC50 for COc1ccc([C@]2(CO)NC[C@@H](O)[C@@H]2O)cc1OC came out at 5.39

Just so you know, measured pIC50 for OC[C@]1(c2c(F)c(F)c(F)c(F)c2F)NC[C@H](O)[C@H]1O came out at 5.39

Just so you know, measured pIC50 for OC[C@]1(c2ccc(O)cc2)NC[C@H](O)[C@H]1O came out at 6.74

---

Form field: inhibition (one value per entry).
organism: Bos taurus; assay: Inhibition of bovine liver beta-galactosidase assessed as release of p-nitrophenol at 1000 uM using p-nitrophenyl glycoside as substrate by spectrometric assay relative to control
Numeric only. Scale: %

| entry_smiles | inhibition (%) |
| --- | --- |
| Cc1ccc([C@@]2(CO)NC[C@H](O)[C@H]2O)cc1 | 22.6 |
| OC[C@@]1(c2ccccc2)NC[C@@H](O)[C@@H]1O | 34.1 |
| COc1ccc([C@]2(CO)NC[C@@H](O)[C@@H]2O)cc1OC | 24.3 |
| OC[C@@]1(c2c(F)c(F)c(F)c(F)c2F)NC[C@@H](O)[C@@H]1O | 38.1 |
| OC[C@@]1(c2ccc(F)cc2)NC[C@@H](O)[C@@H]1O | 8.6 |

Just so you know, measured inhibition for OC[C@]1(c2ccc(O)cc2)NC[C@H](O)[C@H]1O came out at 40.3

Just so you know, measured inhibition for COc1ccc([C@@]2(CO)NC[C@H](O)[C@H]2O)cc1OC came out at 19

Just so you know, measured inhibition for OC[C@@]1(c2cccc(F)c2)NC[C@@H](O)[C@@H]1O came out at 21.7

Just so you know, measured inhibition for OC[C@]1(c2c(F)c(F)c(F)c(F)c2F)NC[C@H](O)[C@H]1O came out at 3.7

Just so you know, measured inhibition for OC[C@@]1(c2ccc(O)cc2)NC[C@@H](O)[C@@H]1O came out at 20.4

---

system: Saccharomyces cerevisiae; experiment: Inhibition of yeast alpha-glucosidase assessed as release of p-nitrophenol at 1000 uM using p-nitrophenyl glycoside as substrate by spectrometric assay relative to control
value_type: inhibition (%)
Numeric only. Scale: %

Consider the following illustrative entries.
| entry_smiles | endpoint_result |
| --- | --- |
| OC[C@@]1(c2cccc(F)c2)NC[C@@H](O)[C@@H]1O | 41.8 |
| OC[C@@]1(c2ccccc2)NC[C@@H](O)[C@@H]1O | 22 |
| CCCC[C@]1(CO)NC[C@@H](O)[C@@H]1O | 32.7 |

Just so you know, measured inhibition for COc1ccc([C@]2(CO)NC[C@@H](O)[C@@H]2O)cc1 came out at 22

Just so you know, measured inhibition for C[C@]1(CO)NC[C@@H](O)[C@@H]1O came out at 12.4

---

Form field: inhibition (one value per entry).
system: Penicillium decumbens; assay: Inhibition of Penicillium decumbens alpha-L-rhamnosidase assessed as release of p-nitrophenol at 1000 uM using p-nitrophenyl glycoside as substrate by spectrometric assay relative to control
Numeric only. Scale: %

Consider the following illustrative entries.
| entry_smiles | value_units | endpoint_result |
| --- | --- | --- |
| OC[C@@]1(c2ccc(O)cc2)NC[C@@H](O)[C@@H]1O | % | 5.5 |
| OC[C@]1(c2c(F)c(F)c(F)c(F)c2F)NC[C@H](O)[C@H]1O | % | 2 |

Form field, inhibition with Penicillium decumbens, item Cc1ccc([C@]2(CO)NC[C@@H](O)[C@@H]2O)cc1 : 7.4

---

organism: Bos taurus; test: Inhibition of bovine liver beta-galactosidase assessed as release of p-nitrophenol at 1000 uM using p-nitrophenyl glycoside as substrate by spectrometric assay relative to control
Form field: inhibition (one value per entry).
Numeric only. Scale: %

| entry_smiles | value_type | endpoint_result |
| --- | --- | --- |
| COc1ccc([C@]2(CO)NC[C@@H](O)[C@@H]2O)cc1 | inhibition | 41 |

Just so you know, measured inhibition for OC[C@]1(c2cccc(F)c2)NC[C@H](O)[C@H]1O came out at 16.4

Just so you know, measured inhibition for OC[C@]1(c2ccc(F)cc2)NC[C@H](O)[C@H]1O came out at 0

Just so you know, measured inhibition for C[C@]1(CO)NC[C@@H](O)[C@@H]1O came out at 37.6

Just so you know, measured inhibition for COc1cccc([C@@]2(CO)NC[C@H](O)[C@H]2O)c1 came out at 26.5

Just so you know, measured inhibition for COc1cccc([C@]2(CO)NC[C@@H](O)[C@@H]2O)c1 came out at 38.9

Just so you know, measured inhibition for CCCC[C@]1(CO)NC[C@@H](O)[C@@H]1O came out at 36.9

Just so you know, measured inhibition for Cc1ccc([C@]2(CO)NC[C@@H](O)[C@@H]2O)cc1 came out at 35

---

Biological target: UniProt C0HJB3
Sequence (whole entry): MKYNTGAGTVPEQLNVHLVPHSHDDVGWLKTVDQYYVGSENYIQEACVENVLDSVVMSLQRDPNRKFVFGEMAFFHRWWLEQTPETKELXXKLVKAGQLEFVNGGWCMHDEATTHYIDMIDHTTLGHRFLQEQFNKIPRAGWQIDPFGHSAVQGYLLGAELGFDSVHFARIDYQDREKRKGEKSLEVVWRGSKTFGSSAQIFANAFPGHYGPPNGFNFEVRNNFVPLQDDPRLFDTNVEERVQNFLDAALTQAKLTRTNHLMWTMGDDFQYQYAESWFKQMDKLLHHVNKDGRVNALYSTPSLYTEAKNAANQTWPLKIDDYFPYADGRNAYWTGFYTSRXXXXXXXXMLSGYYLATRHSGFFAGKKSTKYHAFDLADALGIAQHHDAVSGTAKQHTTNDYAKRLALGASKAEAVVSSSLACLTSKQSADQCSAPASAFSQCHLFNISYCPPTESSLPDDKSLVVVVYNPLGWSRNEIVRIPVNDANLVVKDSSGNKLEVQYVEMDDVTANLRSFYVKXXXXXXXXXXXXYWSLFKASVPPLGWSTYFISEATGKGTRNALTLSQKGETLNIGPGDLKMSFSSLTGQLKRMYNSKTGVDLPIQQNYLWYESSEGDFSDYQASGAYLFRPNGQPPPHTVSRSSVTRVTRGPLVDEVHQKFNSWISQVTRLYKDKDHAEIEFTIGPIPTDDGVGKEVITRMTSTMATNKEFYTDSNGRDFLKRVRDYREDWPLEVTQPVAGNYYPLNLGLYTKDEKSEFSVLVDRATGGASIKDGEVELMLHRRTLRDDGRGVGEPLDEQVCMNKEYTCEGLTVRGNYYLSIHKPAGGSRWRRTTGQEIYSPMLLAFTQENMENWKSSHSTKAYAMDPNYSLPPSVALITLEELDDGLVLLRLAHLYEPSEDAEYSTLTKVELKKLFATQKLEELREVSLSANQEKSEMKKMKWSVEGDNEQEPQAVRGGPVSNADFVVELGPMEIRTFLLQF
Assay: Inhibition of jack bean alpha-mannosidase assessed as release of p-nitrophenol at 1000 uM using p-nitrophenyl glycoside as substrate by spectrometric assay relative to control
value_type: inhibition (%)
Numeric only. Scale: %

| entry_smiles | value_type | endpoint_result |
| --- | --- | --- |
| OC[C@]1(c2ccc(F)cc2)NC[C@H](O)[C@H]1O | inhibition | 6.6 |
| OC[C@]1(c2cccc(F)c2)NC[C@H](O)[C@H]1O | inhibition | 0 |
| COc1ccc([C@@]2(CO)NC[C@H](O)[C@H]2O)cc1OC | inhibition | 0 |

Just so you know, measured inhibition for OC[C@@]1(c2cccc(F)c2)NC[C@@H](O)[C@@H]1O came out at 0

Just so you know, measured inhibition for C[C@]1(CO)NC[C@@H](O)[C@@H]1O came out at 3.8

Just so you know, measured inhibition for OC[C@@]1(c2ccc(O)cc2)NC[C@@H](O)[C@@H]1O came out at 2.2

Just so you know, measured inhibition for Cc1ccc([C@]2(CO)NC[C@@H](O)[C@@H]2O)cc1 came out at 0

Just so you know, measured inhibition for OC[C@@]1(c2ccccc2)NC[C@@H](O)[C@@H]1O came out at 0

Just so you know, measured inhibition for CCCCCCCCC[C@]1(CO)NC[C@@H](O)[C@@H]1O came out at 0
